- assay-system: T1, recombinant human CD40-Fc (human, UniProt P25942 21-193)
- T1 construct: also called rh-CD40-Fc; CD40-hFc
- T1 sequence (P25942 21-193): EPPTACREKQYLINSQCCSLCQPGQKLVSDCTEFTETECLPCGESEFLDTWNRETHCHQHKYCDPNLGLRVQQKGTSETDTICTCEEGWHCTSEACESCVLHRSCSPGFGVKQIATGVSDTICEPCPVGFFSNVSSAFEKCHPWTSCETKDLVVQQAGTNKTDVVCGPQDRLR
- protocol-summary: ELISA, CD40-Fc coated, VHH at 0.064 nM
property-name: OD450

binder	OD450
pgDD40-SZ-7 (VHH, not shown: small tags and cut ends) VHH: QVQLVESGGALAQPGGSLRLSCEASATVRSVNAMAWYRQGPGKPRELVANITSGDTTYYADSVKGRFTLSREGARNTVYLQMNSLKPEDTAVYQCNIHYTSTGGIRRDYWGRGTQVTVSS	0.088
pgDD40-SZ-3 (VHH, not shown: small tags and cut ends) VHH: QVQLVESGGGLVQAGDSLRLSCTASGRAFNTYTMAWFRQAPGKERDFVAAISRDGTITHYADSVKGRFTTTRDNAKNTMYLQMSSLKYDDTAVYYCAARRVGAVPERESAYEHWGQGTQVTVSS	0.098
pgDD40-HZ-47 (VHH, not shown: small tags and cut ends) VHH: QVQLVESGGGLVQPGGSMRLSCSASGFSISVYWMSWVRRAPGKGLEWVSNLGADGVTAQYSDSVKGRFTIARDTAKNTLYLQMNSLKPEDTAVYYCNAMTGMNPAEEEAYWGQGTQVTVSS	0.053
pgDD40-SZ-2 (VHH, not shown: small tags and cut ends) VHH: EVQLVESGGALAQPGGSLRLSCEASATIRSVNAMAWYRQGPGKPREMVANITSGDTTYYADSVKGRFTLSREGARNTVYLQMNSLKPEDTAVYQCNIHYTSTGGIRRDYWGRGTQVTVSS	0.091
pgDD40-HZ-15 (VHH, not shown: small tags and cut ends) VHH: EVQLVESGGGLVQAGGSLRLSCAASGFTFDDYAIGWFRQAPGKEREGVSCLSKNVGNTYYADSVKGRFTISSDNAKNTVYLQMNSLKPEDTAVYYCAKGSGYGCYDFPRYAVWGQGTQVTVSS	0.062
pgDD40-HZ-28 (VHH, not shown: small tags and cut ends) VHH: EVQLVESGGGLVQAGGSLRLSCVASERTFTPVRMGWFRQAPGKEREIVAAITWSDGSTYYADAVKGRFTISRDNALNAVYLQIDSLKPEDTAVYVCAASTSPYSTHLQFRYWGQGTQVTVSS	0.07
